Value source: patent EP0550007A2

- experimental_details: toxicity, LD50 i.p. (Table 1)
- Type: in vivo
- experimental_context: 50 % of the animals died within 24 hours from the administration, 1440 min

{"molecule": "CN1CC[C@@]2(C)c3cc(OC(=O)NN4CCOCC4)ccc3N(C)[C@@H]12", "LD50": "<80 mg/kg"}
{"molecule": "CN1CC[C@@]2(C)c3cc(OC(=O)NN4CCSCC4)ccc3N(C)[C@@H]12", "LD50": "<80 mg/kg"}
{"molecule": "CN1CC[C@@]2(C)c3cc(OC(=O)NN4CCNCC4)ccc3N(C)[C@@H]12", "LD50": "<80 mg/kg"}
{"molecule": "CCCC1CN(NC(=O)Oc2ccc3c(c2)[C@]2(C)CCN(C)[C@@H]2N3C)CCO1 (some centres unmarked)", "LD50": "< 60 mg/kg"}
{"molecule": "CN1CC[C@@]2(C)c3cc(OC(=O)NN4CCCNCC4)ccc3N(C)[C@@H]12", "LD50": "<80 mg/kg"}

---

- experimental_details: toxicity, LD50 i.p. (Table 1)
- Type: in vivo
- experimental_context: in vivo, ip, 50 % of the animals died within 24 hours from the administration

{"compound": "CN1CC[C@@]2(C)c3cc(OC(=O)NN4CCNCC4)ccc3N(C)[C@@H]12", "LD50 at 24 h": "> 40 mg/kg"}
{"compound": "CN1CC[C@@]2(C)c3cc(OC(=O)NN4CCOCC4)ccc3N(C)[C@@H]12", "LD50 at 24 h": "> 40 mg/kg"}
{"compound": "CCCC1CN(NC(=O)Oc2ccc3c(c2)[C@]2(C)CCN(C)[C@@H]2N3C)CCO1 (stereo partly drawn)", "LD50 at 24 h": "> 30 mg/kg"}

---

- experimental_details: toxicity, LD50 i.p. (Table 1)
- Assay type: in vivo
- experimental_context: 50 % of the animals died within 24 hours from the administration, 1440 min
# LD50 values compiled below

{"compound": "CCCC1CCN(NC(=O)Oc2ccc3c(c2)[C@]2(C)CCN(C)[C@@H]2N3C)C1=O (some centres unmarked)", "LD50": "< 60 mg/kg"}
{"compound": "CC1CCCC(C)N1NC(=O)Oc1ccc2c(c1)[C@]1(C)CCN(C)[C@@H]1N2C (some centres unmarked)", "LD50": "< 80 mg/kg"}
{"compound": "CCCC1CCCN(NC(=O)Oc2ccc3c(c2)[C@]2(C)CCN(C)[C@@H]2N3C)C1C (some centres unmarked)", "LD50": "< 60 mg/kg"}
{"compound": "CN1CC[C@@]2(C)c3cc(OC(=O)NN4CCN(CCO)CC4)ccc3N(C)[C@@H]12", "LD50": ">40 mg/kg"}
{"compound": "CN1CC[C@@]2(C)c3cc(OC(=O)NC4CN5CCC4CC5)ccc3N(C)[C@@H]12 (some centres unmarked)", "LD50": "< 60 mg/kg"}

---

- experimental_details: toxicity, LD50 i.p. (Table 1)
- Type: in vivo
- experimental_context: in vivo, ip, 50 % of the animals died within 24 hours from the administration
- Procedure: LD50 is determined for the dose (mg/kg) at which 50 % of the animals died within 24 hours from the administration.
# LD50 at 24 h values compiled below

{"compound": "CN1CC[C@@]2(C)c3cc(OC(=O)NC4CN5CCC4CC5)ccc3N(C)[C@@H]12 (some centres unmarked)", "LD50 at 24 h": "> 30 mg/kg"}
{"compound": "CN1CC[C@@]2(C)c3cc(OC(=O)NN4CCCNCC4)ccc3N(C)[C@@H]12", "LD50 at 24 h": "> 40 mg/kg"}
{"compound": "CN1CC[C@@]2(C)c3cc(OC(=O)NN4CCSCC4)ccc3N(C)[C@@H]12", "LD50 at 24 h": "> 40 mg/kg"}
{"compound": "CNC(=O)Oc1ccc2c(c1)[C@]1(C)CCN(C)[C@@H]1N2C [Physostigmine, reference compound]", "LD50 at 24 h": "0.64 mg/kg"}
{"compound": "CC1CCCC(C)N1NC(=O)Oc1ccc2c(c1)[C@]1(C)CCN(C)[C@@H]1N2C (some centres unmarked)", "LD50 at 24 h": "> 40 mg/kg"}
{"compound": "CCCC1CCN(NC(=O)Oc2ccc3c(c2)[C@]2(C)CCN(C)[C@@H]2N3C)C1=O (some centres unmarked)", "LD50 at 24 h": "> 30 mg/kg"}
{"compound": "CCCC1CCCN(NC(=O)Oc2ccc3c(c2)[C@]2(C)CCN(C)[C@@H]2N3C)C1C (some centres unmarked)", "LD50 at 24 h": "> 30 mg/kg"}
{"compound": "CN1CC[C@@]2(C)c3cc(OC(=O)NN4CCN(CCO)CC4)ccc3N(C)[C@@H]12", "LD50 at 24 h": "< 80 mg/kg"}

---

- experimental_details: acute toxicity, oral LD50 in the mouse
- experimental_context: mouse, in vivo, po

{"compound": "CN1CC[C@@]2(C)c3cc(OC(=O)N[C@H]4CCCCNC4=O)ccc3N(C)[C@@H]12 [MGT1, eseroline R-caprolactam carbamate]", "LD50 at 168 h / mg/kg": 322}
{"compound": "CN1CC[C@@]2(C)c3cc(OC(=O)Nc4ccc5c(c4)OCO5)ccc3N(C)[C@@H]12 [MGT7, eseroline 1,3 benzodioxol-5 carbamate]", "LD50 at 168 h / mg/kg": 332}
{"compound": "CN1CC[C@@]2(C)c3cc(OC(=O)N[C@H]4C(O)O[C@H](CO)[C@@H](O)[C@@H]4O)ccc3N(C)[C@@H]12 (stereo partly drawn) [MGT4, eseroline N-D-glucosamine carbamate]", "LD50 at 168 h / mg/kg": 398}
